System: MOLT-4
assay-notes: Antiproliferative activity against human MOLT4 cells after 48 hrs by MTT assay
Format: functional, cell-based
experimental-parameters: MOLT-4, 48 h
experimental-readout: IC50
Just so you know, I need the unit written after the number.

Here is how some compounds turned out for IC50.
INSERT INTO measurements (structure_smiles_string, measurement) VALUES
  ('O=C(/C=C/c1ccc(C(=O)NO)cc1)N[C@@H](Cc1c[nH]c2ccccc12)C(=O)Nc1cccc(Cl)c1', '670 nM'),
  ('O=C(/C=C/c1ccc(C(=O)NO)cc1)N[C@@H](Cc1c[nH]c2ccccc12)C(=O)Nc1ccc(Br)cc1', '470 nM'),
  ('O=C(/C=C/c1ccc(C(=O)NO)cc1)N[C@@H](Cc1c[nH]c2ccccc12)C(=O)Nc1ccc(F)cc1', '840 nM');

Kindly review the next compound as well.
Looking up O=C(/C=C/c1ccc(C(=O)NO)cc1)N[C@@H](Cc1c[nH]c2ccccc12)C(=O)Nc1ccc(Cl)cc1 , I found its IC50 recorded as 680 nM

====

experimental-target: Protein deacetylase HDAC6 (Homo sapiens, UniProt Q9UBN7)
Sequence (Q9UBN7 whole entry): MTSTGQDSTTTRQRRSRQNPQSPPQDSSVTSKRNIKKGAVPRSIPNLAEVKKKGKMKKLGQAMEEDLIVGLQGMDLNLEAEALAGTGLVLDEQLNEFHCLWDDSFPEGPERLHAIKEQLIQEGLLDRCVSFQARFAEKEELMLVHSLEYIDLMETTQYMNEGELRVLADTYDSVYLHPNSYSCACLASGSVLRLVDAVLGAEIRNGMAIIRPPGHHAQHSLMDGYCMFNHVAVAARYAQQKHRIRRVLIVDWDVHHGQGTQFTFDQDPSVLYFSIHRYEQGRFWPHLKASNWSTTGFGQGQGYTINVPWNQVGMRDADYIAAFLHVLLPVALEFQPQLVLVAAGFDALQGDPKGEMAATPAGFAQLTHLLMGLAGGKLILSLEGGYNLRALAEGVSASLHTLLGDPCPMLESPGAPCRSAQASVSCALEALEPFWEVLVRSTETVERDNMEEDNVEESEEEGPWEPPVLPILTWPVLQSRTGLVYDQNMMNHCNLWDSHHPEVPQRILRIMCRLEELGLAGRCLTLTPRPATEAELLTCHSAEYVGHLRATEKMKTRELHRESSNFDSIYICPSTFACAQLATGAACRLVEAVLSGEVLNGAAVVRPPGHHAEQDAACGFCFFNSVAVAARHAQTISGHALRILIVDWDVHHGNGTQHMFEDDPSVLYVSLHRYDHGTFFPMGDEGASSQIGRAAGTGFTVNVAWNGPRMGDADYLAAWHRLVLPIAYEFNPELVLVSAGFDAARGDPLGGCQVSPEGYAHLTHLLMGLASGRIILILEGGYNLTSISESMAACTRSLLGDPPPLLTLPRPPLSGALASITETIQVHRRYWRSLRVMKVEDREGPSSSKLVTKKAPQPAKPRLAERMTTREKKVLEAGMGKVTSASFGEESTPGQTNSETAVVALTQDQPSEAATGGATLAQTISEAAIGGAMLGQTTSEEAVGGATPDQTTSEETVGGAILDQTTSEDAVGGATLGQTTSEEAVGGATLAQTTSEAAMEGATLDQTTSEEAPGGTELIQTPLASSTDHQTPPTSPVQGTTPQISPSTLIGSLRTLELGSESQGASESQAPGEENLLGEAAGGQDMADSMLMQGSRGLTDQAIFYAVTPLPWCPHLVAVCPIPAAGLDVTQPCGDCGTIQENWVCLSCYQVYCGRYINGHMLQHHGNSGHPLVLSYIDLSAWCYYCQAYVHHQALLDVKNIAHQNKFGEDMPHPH
assay-notes: Inhibition of HDAC6 (unknown origin) using Ac-Leu-GlyLys(Ac)-AMC as substrate preincubated for 5 mins followed by substrate addition measured after 30 mins by fluorescence assay
Each entry below lists one item and its recorded pIC50 value.
Just so you know, pIC50 here is -log10 of the concentration in molar units; reply with that number alone.

INSERT INTO measurements (structure_smiles_string, measurement) VALUES
  ('O=C(/C=C/c1ccc(C(=O)NO)cc1)N[C@@H](Cc1c[nH]c2ccccc12)C(=O)Nc1ccc(Br)cc1', 6.90);

Kindly review the next compound as well.
Looking up O=C(/C=C/c1ccc(C(=O)NO)cc1)N[C@@H](Cc1c[nH]c2ccccc12)C(=O)Nc1cccc(Cl)c1 , I found its pIC50 recorded as 7.29

====

Tested on: HEL
assay-notes: cells
experimental-parameters: Homo sapiens, 48 h
Description: Antiproliferative activity against human HEL cells after 48 hrs by MTT assay
experimental-readout: pIC50
Just so you know, pIC50 here is -log10 of the concentration in molar units; reply with that number alone.

Here is how some compounds turned out for pIC50.
INSERT INTO measurements (structure_smiles_string, measurement) VALUES
  ('O=C(CCCCCCC(=O)Nc1ccccc1)NO', 6.10),
  ('O=C(/C=C/c1ccc(C(=O)NO)cc1)N[C@@H](Cc1c[nH]c2ccccc12)C(=O)Nc1ccc(Cl)cc1', 5.94),
  ('O=C(/C=C/c1ccc(C(=O)NO)cc1)N[C@@H](Cc1c[nH]c2ccccc12)C(=O)Nc1cccc(Cl)c1', 6.31),
  ('O=C(/C=C/c1ccc(C(=O)NO)cc1)N[C@@H](Cc1c[nH]c2ccccc12)C(=O)Nc1ccc(F)cc1', 6.00);

Kindly review the next compound as well.
The reported pIC50 value, HEL, for O=C(/C=C/c1ccc(C(=O)NO)cc1)N[C@@H](Cc1c[nH]c2ccccc12)C(=O)Nc1ccc(Br)cc1 reads 6.36

====

experimental-target: Histone deacetylase
assay-notes: Inhibition of HDAC in human HeLa cell nuclear extract using Boc-Lys (acetyl)-AMC as substrate preincubated for 5 mins followed by substrate addition measured after 30 mins by fluorescence assay
Format: protein assay
IC50 vs 60 nM: less than gives true (1); not less than gives false (0).

Use these answered entries as a reference point.
INSERT INTO assay_data (structure_smiles_string, experimental_target, assigned_class) VALUES
  ('CCCCNC(=O)[C@H](Cc1c[nH]c2ccccc12)NC(=O)/C=C/c1ccc(C(=O)NO)cc1', 'Histone deacetylase', 'false (0)'),
  ('CC(C)CNC(=O)[C@H](Cc1c[nH]c2ccccc12)NC(=O)/C=C/c1ccc(C(=O)NO)cc1', 'Histone deacetylase', 'false (0)'),
  ('Cc1ccc(NC(=O)[C@H](Cc2c[nH]c3ccccc23)NC(=O)/C=C/c2ccc(C(=O)NO)cc2)cc1', 'Histone deacetylase', 'true (1)'),
  ('O=C(/C=C/c1ccc(C(=O)NO)cc1)N[C@@H](Cc1c[nH]c2ccccc12)C(=O)Nc1cccc(Cl)c1', 'Histone deacetylase', 'true (1)');

Hi there! Is IC50 for O=C(/C=C/c1ccc(C(=O)NO)cc1)N[C@@H](Cc1c[nH]c2ccccc12)C(=O)Nc1ccccc1Cl below 60 nM, do you know?
true (1)

Hi there! Is IC50 for O=C(/C=C/c1ccc(C(=O)NO)cc1)N[C@@H](Cc1c[nH]c2ccccc12)C(=O)NCc1ccccc1 below 60 nM, do you know?
true (1)

Hi there! Is IC50 for O=C(/C=C/c1ccc(C(=O)NO)cc1)N[C@@H](Cc1c[nH]c2ccccc12)C(=O)Nc1ccncc1 below 60 nM, do you know?
true (1)

Hi there! Is IC50 for O=C(/C=C/c1ccc(C(=O)NO)cc1)N[C@@H](Cc1c[nH]c2ccccc12)C(=O)Nc1ccc(I)cc1 below 60 nM, do you know?
true (1)

Hi there! Is IC50 for Cc1cc(C)c(NC(=O)[C@H](Cc2c[nH]c3ccccc23)NC(=O)/C=C/c2ccc(C(=O)NO)cc2)c(C)c1 below 60 nM, do you know?
true (1)

Hi there! Is IC50 for O=C(/C=C/c1ccc(C(=O)NO)cc1)N[C@@H](Cc1c[nH]c2ccccc12)C(=O)Nc1ccccc1 below 60 nM, do you know?
true (1)
